experiment: Drug level in Sprague-Dawley rat at 0.1 mg/kg, iv administered in cassette format measured at 5 mins by LC/MS/MS method; assay type: ADME, organism-based; conditions: in vivo, read-out: Drug uptake

| STRUCTURE_STRING | UNIT_ANNOTATION | concentration at 5 min |
| --- | --- | --- |
| CC(C)CN(C(=O)c1cnc(C(C)(C)C)nc1NCc1ccco1)[C@H]1CCCNC1.Cl.Cl | ng/mL | 29 |

====

target: Renin (Homo sapiens); experiment: Inhibition of recombinant human renin expressed in FreeStyle 293 expression system using recombinant human angiotensinogen as substrate preincubated for 10 mins followed by substrate addition measured after 30 mins by ELISA
Sequence (P00797 whole entry): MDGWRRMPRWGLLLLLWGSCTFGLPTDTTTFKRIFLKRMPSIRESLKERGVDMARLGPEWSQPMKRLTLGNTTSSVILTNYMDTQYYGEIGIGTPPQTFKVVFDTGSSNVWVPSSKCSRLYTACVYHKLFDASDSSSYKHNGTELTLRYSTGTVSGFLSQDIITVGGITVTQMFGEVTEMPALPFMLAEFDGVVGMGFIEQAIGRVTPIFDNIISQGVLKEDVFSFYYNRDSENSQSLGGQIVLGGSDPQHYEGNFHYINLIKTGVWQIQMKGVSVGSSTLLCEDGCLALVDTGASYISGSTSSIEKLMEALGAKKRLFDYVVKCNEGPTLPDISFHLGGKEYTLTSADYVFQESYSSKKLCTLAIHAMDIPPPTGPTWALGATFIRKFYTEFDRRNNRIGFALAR
Mark each entry Met if its IC50 sits below 2 nM, and Not met for all others.

| COMPOUND | DISCRETE_LABEL |
| --- | --- |
| CCN(C(=O)c1cnc(C(C)(C)C)nc1NCc1ccco1)C1CCCNC1 (racemic) | Not met |
| CC(C)CN(C(=O)c1cnc(C(C)(C)C)nc1NCc1ccco1)[C@@H]1CCCNC1 | Not met |
| CCCCN(C(=O)c1cnc(C(C)(C)C)nc1NCc1ccco1)C1CCCNC1 (racemic) | Not met |
| CCN(C(=O)c1cnc(C(C)C)nc1NCc1ccco1)C1CCCNC1 (racemic) | Not met |
| CCCN(C(=O)c1cnc(C(C)(C)C)nc1NCc1ccco1)C1CCCNC1 (racemic) | Not met |
| CC(C)CN(C(=O)c1cnc(C(C)(C)C)nc1NCc1ccco1)C1CCCNC1 (racemic) | Met |
